Target: Lethal factor (Bacillus anthracis)
Sequence (P15917 whole entry): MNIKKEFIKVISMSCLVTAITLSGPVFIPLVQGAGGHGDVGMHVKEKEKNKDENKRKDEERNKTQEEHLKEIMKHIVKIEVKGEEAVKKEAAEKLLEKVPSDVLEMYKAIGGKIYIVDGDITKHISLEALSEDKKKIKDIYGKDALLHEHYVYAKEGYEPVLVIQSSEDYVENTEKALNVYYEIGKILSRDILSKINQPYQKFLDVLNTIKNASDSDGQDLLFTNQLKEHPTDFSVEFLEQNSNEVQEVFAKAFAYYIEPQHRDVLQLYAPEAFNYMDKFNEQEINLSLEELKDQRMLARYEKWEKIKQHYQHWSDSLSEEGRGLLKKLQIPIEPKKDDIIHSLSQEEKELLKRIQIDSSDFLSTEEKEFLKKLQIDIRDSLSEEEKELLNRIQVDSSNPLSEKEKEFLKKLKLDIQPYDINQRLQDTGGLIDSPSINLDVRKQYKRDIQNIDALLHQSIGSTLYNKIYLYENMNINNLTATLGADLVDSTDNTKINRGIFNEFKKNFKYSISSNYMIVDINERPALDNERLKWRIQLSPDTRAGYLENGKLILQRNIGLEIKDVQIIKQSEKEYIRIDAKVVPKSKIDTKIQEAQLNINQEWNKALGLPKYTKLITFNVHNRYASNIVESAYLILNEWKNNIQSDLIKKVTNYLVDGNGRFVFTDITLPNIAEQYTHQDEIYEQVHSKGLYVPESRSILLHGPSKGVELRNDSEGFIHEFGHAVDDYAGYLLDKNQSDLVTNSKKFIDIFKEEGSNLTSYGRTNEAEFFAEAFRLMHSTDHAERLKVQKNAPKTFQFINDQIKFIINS
pKi: −log10 of the molar value.
result-type: pKi

input-smiles: NC[C@H]1O[C@H](O[C@H]2[C@H](O)[C@@H](O)[C@H](N)C[C@@H]2N=C(N)N)[C@H](N)[C@@H](O)[C@@H]1O
result-type: pKi
numeric-readout: 5.28
--
input-smiles: NC(N)=NC[C@H]1O[C@H](O[C@H]2[C@H](O)[C@@H](O)[C@H](N=C(N)N)C[C@@H]2N)[C@H](N=C(N)N)[C@@H](O)[C@@H]1O
result-type: pKi
numeric-readout: 5.51
--
input-smiles: NC(N)=NC[C@H]1O[C@H](O[C@H]2[C@H](O)[C@@H](O)[C@H](N)C[C@@H]2N=C(N)N)[C@H](N=C(N)N)[C@@H](O)[C@@H]1O
result-type: pKi
numeric-readout: 5.04

Where do these numbers come from? They come from ChEMBL document CHEMBL1146910.
